Every entry's value here was drawn from patent US4859663A.

assay.procedure: Acute toxicity (LD50)
recorded.conditions: in vivo, iv; mouse, single i.v. administration, mortality within 7 days
reported.endpoint: LD50 at 168 h (mg/kg)
The response must be a number in mg/kg with no trailing unit.

Query block: GET /values?readout=LD50 at 168 h&item= Cc1cc(N2CCCC2)c(C#N)c(C)[n+]1[O-]
Result block: 200

Query block: GET /values?readout=LD50 at 168 h&item= Cc1cc(N2CCSCC2)c(C#N)c(C)[n+]1[O-].Cl
Result block: 135

###

Give measured LD50 at 168 h for each item. Keep answers brief.
assay.procedure: Acute toxicity (LD50)
recorded.conditions: in vivo, iv; mouse, single i.v. administration, mortality within 7 days
The response must be a number in mg/kg with no trailing unit.

Query block: GET /values?readout=LD50 at 168 h&item= Cc1cc(N2CCN(c3ccc(F)cc3)CC2)c([N+](=O)[O-])c(C)[n+]1[O-] [Example 26]
Result block: 200

Query block: GET /values?readout=LD50 at 168 h&item= Cc1cc(N2CCCNCC2)c([N+](=O)[O-])c(C)[n+]1[O-] [Example 11]
Result block: 200
